Test system: gastrale Ulcera
Assay: Gastric ulcerogenic effect
Conditions: ratio of UD50 (gastric ulcers) to ED50 (adjuvant arthritis), rat
attribute measured: TI(UD50/ED50) therapeutischer Index
# answer = number (no unit)

Incoming: Print gastrale Ulcera TI(UD50/ED50) therapeutischer Index for CC1=C(CC(=O)O)c2cc(F)ccc2/C1=C\c1ccc([S+](C)[O-])cc1 (stereo not shown) [Sulindac, reference compound] .
Outgoing: 2

Incoming: Please tell me the measured TI(UD50/ED50) therapeutischer Index for CC(Oc1cccc(-c2ccccc2)n1)C(=O)O (racemic) ; system: gastrale Ulcera.
Outgoing: 9

Incoming: Please respond with reported TI(UD50/ED50) therapeutischer Index (system gastrale Ulcera) for CC(CO)Oc1cccc(-c2ccccc2)n1 (racemic) .
Outgoing: 11

Incoming: Lab note: gastrale Ulcera assay, enter TI(UD50/ED50) therapeutischer Index for `CCOC(=O)[C@@H](C)Oc1cccc(-c2ccccc2)n1` here
Outgoing: 8

====

Experiment: in vivo
Conditions: rat, in vivo; Sprague-Dawley rats, 6 animals per dose; Litchfield-Wilcoxon; read-out: LD50 akute Toxizität
attribute measured: LD50 (mg/kg)
Write the answer as a number in mg/kg, unit excluded.

Incoming: Identify the reported LD50 for the following entry. CC(CO)Oc1cccc(-c2ccccc2)n1 (racemic)
Outgoing: 1000

====

Assay: Gastric ulcerogenic effect
Conditions: rat, stomach, po
Some compounds, each annotated with its measured TD50 at 24 h.
Output spec: scalar in mg/kg, unitless text.

CC1=C(CC(=O)O)c2cc(F)ccc2/C1=C\c1ccc([S+](C)[O-])cc1 (stereo not shown) [Sulindac, reference compound] = 26
CC(Oc1cccc(-c2ccccc2)n1)C(=O)O (racemic) = 175
CC(CO)Oc1cccc(-c2ccccc2)n1 (racemic) = 220

Please find the next compound below.
Incoming: Specify reported TD50 at 24 h for the compound shown: `CCOC(=O)[C@@H](C)Oc1cccc(-c2ccccc2)n1`
Outgoing: 125

Ref: patent EP0090353A1
